- Assay system: h-mT1R2-481/T1R3mosaicA (UniProt Q8TE23+Q925D8, A12W/A31M/A537S/A558R/A564V/A568V/A570T/A588V/A645S/A649T/A658V/A698V/A702T/A782V/A793V/A807V/C582S/C678S/E16H/E530V/E534N/E542M/E548N/E725V/F14L/F29L/F525Y/F541I/F612A/F622V/F665L/F695L/G696N/G701T/H484Y/H528R/H728R/I36V/I481V/I486P/I490V/I510L/I518V/I595M/I60P/I617V/I643V/I645L/I692L/I695G/I706V/I740A/I803L/K30R/K504M/K555R/K565R/K626T/K714N/K818R/K827G/L17P/L521P/L560F/L571I/L578I/L610P/L631F/L636F/L639V/L684P/L688V/L702I/L734M/L735F/L800F/L823M/L825Q/M19T/M492I/M616G/M644L/M682V/M690V/M744T/M748V/N52R/N540G/N541S/N547G/N58S/N63T/N675D/N721H/P545F/P561R/P564S/P61V/P638T/P824S/Q32K/Q536L/Q53S/Q546K/Q550E/Q555R/Q56R/Q611L/Q676H/Q757R/Q795R/Q831P/R498S/R632Q/R667S/S22P/S45E/S501P/S547N/S550A/S576L/S595F/S610P/S628F/S635P/S637R/S663R/S670G/S679G/S681F/S703N/S717H/S727G/S784D/S804G/T46A/T50G/T529S/T542A/T549I/T609V/T629S/T642S/T663I/T694M/T705I/T706G/T716I/T813A/V508I/V512P/V557A/V573A/V584A/V585L/V613L/V617M/V673M/V687A/V691A/V694A/V718L/V718M/V723A/V729T/V738A/V741L/V774I/V791M/V805L/V812A/V821L/W599R/W676R/W824R/Y533F/Y615F/Y671F/Y680C/Y769S/Y783H/Y794L)
- Sequence (Q8TE23 with tags, fused parts or gaps with the stated changes limits assumed): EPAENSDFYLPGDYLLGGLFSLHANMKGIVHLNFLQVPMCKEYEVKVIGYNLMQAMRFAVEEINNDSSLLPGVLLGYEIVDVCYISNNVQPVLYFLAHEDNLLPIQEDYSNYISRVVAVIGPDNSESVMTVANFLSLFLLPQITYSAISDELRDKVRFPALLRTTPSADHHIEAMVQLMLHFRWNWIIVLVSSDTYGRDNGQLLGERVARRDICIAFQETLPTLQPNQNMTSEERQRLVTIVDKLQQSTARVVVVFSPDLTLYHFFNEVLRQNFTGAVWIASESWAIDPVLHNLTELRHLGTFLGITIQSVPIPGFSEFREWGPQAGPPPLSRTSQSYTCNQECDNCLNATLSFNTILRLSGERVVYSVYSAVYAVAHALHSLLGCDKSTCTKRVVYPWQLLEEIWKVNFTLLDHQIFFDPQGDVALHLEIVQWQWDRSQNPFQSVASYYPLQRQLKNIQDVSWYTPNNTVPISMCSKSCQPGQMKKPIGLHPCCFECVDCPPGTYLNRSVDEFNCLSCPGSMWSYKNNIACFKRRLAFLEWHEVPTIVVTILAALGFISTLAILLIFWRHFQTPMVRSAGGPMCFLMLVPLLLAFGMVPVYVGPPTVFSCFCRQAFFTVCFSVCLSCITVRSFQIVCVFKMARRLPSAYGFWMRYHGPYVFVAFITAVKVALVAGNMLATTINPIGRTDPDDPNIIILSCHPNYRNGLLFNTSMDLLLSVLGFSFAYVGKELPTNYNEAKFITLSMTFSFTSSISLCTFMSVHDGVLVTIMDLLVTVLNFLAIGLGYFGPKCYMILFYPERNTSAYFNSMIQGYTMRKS
- Sequence (Q925D8 with tags, fused parts or gaps with the stated changes limits assumed): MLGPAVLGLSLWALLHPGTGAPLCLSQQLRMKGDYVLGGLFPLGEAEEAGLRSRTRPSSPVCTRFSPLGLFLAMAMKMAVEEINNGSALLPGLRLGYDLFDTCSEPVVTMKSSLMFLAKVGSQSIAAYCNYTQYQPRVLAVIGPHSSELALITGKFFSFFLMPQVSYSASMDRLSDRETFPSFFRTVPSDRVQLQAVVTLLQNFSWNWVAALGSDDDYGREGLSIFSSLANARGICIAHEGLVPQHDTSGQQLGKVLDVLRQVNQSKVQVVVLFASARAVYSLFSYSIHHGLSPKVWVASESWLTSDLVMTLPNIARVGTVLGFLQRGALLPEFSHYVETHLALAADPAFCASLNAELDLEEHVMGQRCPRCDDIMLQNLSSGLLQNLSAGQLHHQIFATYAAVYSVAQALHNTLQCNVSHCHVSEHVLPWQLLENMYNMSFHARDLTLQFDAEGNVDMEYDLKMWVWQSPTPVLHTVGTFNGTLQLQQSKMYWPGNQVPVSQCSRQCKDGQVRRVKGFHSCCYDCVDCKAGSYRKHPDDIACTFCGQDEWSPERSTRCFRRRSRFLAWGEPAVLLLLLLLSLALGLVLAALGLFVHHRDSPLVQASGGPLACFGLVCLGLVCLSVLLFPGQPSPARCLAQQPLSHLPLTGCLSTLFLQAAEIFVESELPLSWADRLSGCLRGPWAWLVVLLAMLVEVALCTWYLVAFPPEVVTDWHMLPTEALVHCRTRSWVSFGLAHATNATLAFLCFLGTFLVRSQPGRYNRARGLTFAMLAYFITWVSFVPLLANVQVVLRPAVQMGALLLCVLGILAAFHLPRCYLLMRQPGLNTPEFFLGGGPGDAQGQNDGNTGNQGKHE
- Recorded conditions: Table 4; genes h-mT481/T3mA (h-mT1R2-481, T1R3mA); HEK293E cells
Residues, ends and D or L forms follow the SMILES beside them.
Reported S/N values for a set of compounds
Output: the number by itself.

Compound | Numeric readout
COC(=O)[C@H](Cc1ccccc1)NC(=O)[C@H](CC(=O)O)NCCCc1ccc(OC)c(O)c1 | 11.3

Any idea what its S/N is? The compound is OC[C@H]1O[C@@](CO)(O[C@H]2O[C@H](CO)[C@@H](O)[C@H](O)[C@H]2O)[C@@H](O)[C@@H]1O
3.9

Any idea what its S/N is? The compound is O=C1NS(=O)(=O)c2ccccc21.[Na] [Saccharin Na, sodium saccharin]
5.6

Any idea what its S/N is? The compound is COC(=O)[C@H](Cc1ccccc1)NC(=O)[C@@H](N)CC(=O)O [Aspartame, aspartame] (HELM PEPTIDE1{D.F.[CO[*:1]]}$$$$V2.0)
9.4
